# Test system: S. aureus DSM 20231;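 further: first quartile when negative (synergy) and third quartile when positive (antagonism)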
# assay.info: Bliss interaction score (quartile over a dose matrix) (fitness difference); higher = more antagonism (negative = synergy)
# experimental.parameters: main component drawn
readout: Bliss interaction score
Lab note: jot down the number only; don't add units.

Consider the following illustrative entries.
molecule	measured.result
CC[C@H](C)[C@H](N)C1=N[C@H](C(=O)N[C@@H](CC(C)C)C(=O)N[C@H](CCC(=O)O)C(=O)N[C@H](C(=O)N[C@H]2CCCCNC(=O)[C@H](CC(N)=O)NC(=O)[C@@H](CC(=O)O)NC(=O)[C@H](Cc3cnc[nH]3)NC(=O)[C@@H](Cc3ccccc3)NC(=O)[C@H]([C@@H](C)CC)NC(=O)[C@@H](CCCN)NC2=O)[C@@H](C)CC)CS1 [Bacitracin] + C[C@H]1c2cccc(O)c2C(=O)C2=C(O)[C@]3(O)C(=O)C(C(N)=O)=C(O)[C@@H](N(C)C)[C@@H]3[C@@H](O)[C@@H]21 [Doxycycline]	0.101
CC[C@H](C)[C@H](N)C1=N[C@H](C(=O)N[C@@H](CC(C)C)C(=O)N[C@H](CCC(=O)O)C(=O)N[C@H](C(=O)N[C@H]2CCCCNC(=O)[C@H](CC(N)=O)NC(=O)[C@@H](CC(=O)O)NC(=O)[C@H](Cc3cnc[nH]3)NC(=O)[C@@H](Cc3ccccc3)NC(=O)[C@H]([C@@H](C)CC)NC(=O)[C@@H](CCCN)NC2=O)[C@@H](C)CC)CS1 [Bacitracin] + C1=CC(=CC(=C1)Cl)NN=C(C#N)C#N [CCCP]	-0.0168

Continue with the molecule presented below.
Form field Bliss interaction score, entry CC[C@H](C)[C@H](N)C1=N[C@H](C(=O)N[C@@H](CC(C)C)C(=O)N[C@H](CCC(=O)O)C(=O)N[C@H](C(=O)N[C@H]2CCCCNC(=O)[C@H](CC(N)=O)NC(=O)[C@@H](CC(=O)O)NC(=O)[C@H](Cc3cnc[nH]3)NC(=O)[C@@H](Cc3ccccc3)NC(=O)[C@H]([C@@H](C)CC)NC(=O)[C@@H](CCCN)NC2=O)[C@@H](C)CC)CS1 [Bacitracin] + C[C@H]1COc2c(N3CCN(C)CC3)c(F)cc3c(=O)c(C(=O)O)cn1c23 [Levofloxacin] : 0.034

Reference for the values: the supplement of paper PMC10627819
